Tested on: DMS-273
Assay: NCI tumour cell line growth inhibition, 48 h
Activity calls are given as the source filed them. Rule as the data show it: active = GI50 up to about 1.1 µM and inactive = higher.
Classes used: active, inactive

INSERT INTO results (compound, group) VALUES
  ('C[C@H](N)C(=O)N[C@@H]1[C@H]2C(=C(O)C[C@@H](O)[C@@H]2O)C(=O)O[C@]1(C)C(Cl)Cl', 'active'),
  ('COC(=O)[C@@]1(O)CC(C)C=C1C=O (stereo not given in full)', 'inactive'),
  ('CN(C)CCN1C(=O)c2cccc3cc(N)cc(c23)C1=O [AMONAFIDE]', 'inactive'),
  ('[O-][S+]1Nc2cccc(C(F)(F)F)c2S1 (stereo not given)', 'inactive'),
  ('CC1C(=O)C(C)C(c2ccccc2)N(N=O)C1c1ccccc1 (stereo not given)', 'inactive');

====

Test system: DLD-1
Experiment: NCI tumour cell line growth inhibition, 48 h
Activity calls are given as the source filed them. No stated cut-off is given here; in the data, active = GI50 up to about 1.1 µM and inactive = higher.
Classes used: active, inactive

INSERT INTO measurements (molecule, tgt, group) VALUES
  ('C[C@@H]1CC(=O)C2CCCC1C2=O (stereo not given in full)', 'DLD-1', 'inactive'),
  ('NC1CCCCC1.O=C(O)C1(P(=O)(O)O)CC1', 'DLD-1', 'inactive'),
  ('CC(C)(C)NCC(COc1ccc([N+](=O)[O-])cc1)OP(c1ccccc1)c1ccccc1 (stereo not given)', 'DLD-1', 'inactive'),
  ('CCCCCCCCCCCCC/C=C1\C[C@H](O)COC1=O', 'DLD-1', 'inactive'),
  ('CC(=O)O[C@]1(C)OC(=O)[C@@H](CC(C)C)N1[N+](=O)[O-]', 'DLD-1', 'inactive'),
  ('CC(NC(=O)C(=O)N/N=C1\C[C@@H](c2ccccc2)Nc2ccccc21)c1ccccc1 (stereo not given in full)', 'DLD-1', 'inactive'),
  ('O=S(=O)(N/N=C/c1cccc(/C=N/NS(=O)(=O)c2ccccc2)c1)c1ccccc1', 'DLD-1', 'inactive'),
  ('C[C@H](N)C(=O)N[C@@H]1[C@H]2C(=C(O)C[C@@H](O)[C@@H]2O)C(=O)O[C@]1(C)C(Cl)Cl', 'DLD-1', 'active'),
  ('COc1cc2cc(OC)c3cc4c(cc3c2c(OC)c1OC)OCO4', 'DLD-1', 'inactive'),
  ('COc1ccc2nc3ccccc3c(NCCCN(C)CCCl)c2c1', 'DLD-1', 'active');

====

System: OVCAR-4
Experiment: NCI tumour cell line growth inhibition, 48 h
The source made the active and inactive calls. Rule as the data show it: active = GI50 up to about 1.1 µM and inactive = higher.
Classes used: Y for active, N for inactive

INSERT INTO measurements (compound, group) VALUES
  ('COc1ccc(C2S/C(=C\c3cccc([N+](=O)[O-])c3)C(=O)N2NC(=O)Cc2ccccc2)cc1 (stereo not given)', 'N'),
  ('CCOP(=O)(OCC)C(NC(=O)C(C(F)(F)F)C(F)(F)F)c1ccccc1 (stereo not given)', 'N'),
  ('C#CCOC(=O)c1ccc(OC(C)=O)cc1', 'N'),
  ('Cc1ccc(C)c(NC(=O)C(=O)CC(=O)c2cccc3ccccc23)c1', 'N'),
  ('O=[N+]([O-])c1nccn1CC(O)c1ccccc1 (stereo not given)', 'N'),
  ('COC(c1ccc(C(C)(C)C)cc1)(c1ccc(C(C)(C)C)cc1)c1cc(C(O)(c2cc(C(OC)(c3ccc(C(C)(C)C)cc3)c3ccc(C(C)(C)C)cc3)c(C)cc2C)c2cc(C(OC)(c3ccc(C(C)(C)C)cc3)c3ccc(C(C)(C)C)cc3)c(C)cc2C)c(C)cc1C', 'N'),
  ('Cc1nc(O)c(Cc2ccccc2O)c(-c2ccccc2)n1', 'N'),
  ('CCCCOC(=O)CN1C(=O)c2ccccc2C1=O', 'N'),
  ('CCCCCCCCCCCCCCCCCC(=O)NCC(COP(=O)([O-])OCC[N+](C)(C)C)OC (stereo not given)', 'N'),
  ('COc1c2ccccc2c(OC)c2nc(C)ccc12', 'N'),
  ('CC1(C)OC(=O)C(=C2CC(c3ccccc3)c3ccccc32)C(=O)O1 (stereo not given)', 'N'),
  ('Cc1cn(C2CC(N(C)C)C(CO)O2)c(=O)[nH]c1=O (stereo not given)', 'N'),
  ('O=C(CC(=O)c1cccc2ccccc12)C(=O)Nc1nccs1', 'N'),
  ('O=C1CCCCC1CN1CCCCC1 (stereo not given)', 'N'),
  ('COc1ccc(CNc2ccn(C3OC(CO)C(O)C3O)c(=O)n2)cc1 (stereo not given)', 'N'),
  ('C/C(Sc1ccccc1)=C1/CCCN(Cc2ccccc2)C1', 'N'),
  ('CC1C(=O)C(C)C(c2ccccc2)N(N=O)C1c1ccccc1 (stereo not given)', 'N'),
  ('COc1ccccc1N1CCN(CCCCNC(=O)c2ccc([N+](=O)[O-])o2)CC1', 'N'),
  ('NC1CCCCC1.O=C(O)C1(P(=O)(O)O)CC1', 'N'),
  ('Nc1ccc(C(=O)N/C(=C\c2ccc3c(c2)OCO3)c2nc3ccc4c(c3[nH]2)C(=O)c2ccccc2C4=O)cc1', 'N'),
  ('NC(CS)C(=O)NCCNc1ccc(NCCNC(=O)C(N)CS)c2c1C(=O)c1c(O)ccc(O)c1C2=O (stereo not given)', 'Y'),
  ('COC(=O)CCc1c(Cc2ccc[nH]2)[nH]c(C(=O)OCc2ccccc2)c1C', 'N'),
  ('C1CCOC2(CCC3(CC2)OCCCCO3)OC1', 'N'),
  ('O=C(Nc1ccccc1)Oc1ccc(C(=S)Nc2ccc(Br)cc2)cc1', 'N'),
  ('CC1=C(C(=O)Nc2cc(F)c(F)cc2F)C(c2ccc3c(c2)OCO3)C(C(=O)Nc2cc(F)c(F)cc2F)=C(C)N1', 'N'),
  ('CC(=O)Nc1ccc(-c2nnc(SCC(=O)Nc3ccccc3[N+](=O)[O-])o2)cc1', 'N'),
  ('Cc1ccc(S(=O)(=O)N/N=C(\C(=O)Nc2cccc([N+](=O)[O-])c2)c2nc3ccc([N+](=O)[O-])cc3nc2O)cc1', 'N'),
  ('COc1ccc(-c2cc(=O)c3c(OC)c(OC)c(OC)c(OC)c3o2)cc1', 'N'),
  ('Clc1ccccc1C(c1ccccc1)(c1ccccc1)n1ccnc1', 'N'),
  ('CC(C)(C)OC(=O)NC(CCCCNC(=O)OCc1ccccc1)C(=O)NCCNc1ccc(NCCNC(=O)C(CCCCNC(=O)OCc2ccccc2)NC(=O)OC(C)(C)C)c2c1C(=O)c1ccccc1C2=O (stereo not given)', 'N'),
  ('COC(C/C=C\C=C\CC/C=C/CC(C)/C=C/C(=C\C(=O)O)CC(=O)O)/C(C)=C\C=C(/C)C(=O)O (stereo not given)', 'N'),
  ('CN1C(NN)=NS(=O)(=O)c2ccccc21', 'N'),
  ('O=S(=O)(O)C1CCC(O)C2NCCCC21 (stereo not given)', 'N'),
  ('Cc1cc(Nc2ccc(/N=N/c3ccc(O)c4ncccc34)cc2)nc(C)n1', 'N'),
  ('O=C1C[C@@H](Sc2ccccc2)C2(OCCO2)C2ON3CCCC[C@H]3[C@H]12 (stereo not given in full)', 'N'),
  ('C[C@H](N)C(=O)N[C@@H]1[C@H]2C(=C(O)C[C@@H](O)[C@@H]2O)C(=O)O[C@]1(C)C(Cl)Cl', 'Y'),
  ('CN(C)CC1(C)CC/C(=C\c2ccc3c(c2)OCO3)C1=O (stereo not given)', 'N'),
  ('c1cc2c(cc1NC1=NCCO1)CCCC2', 'N'),
  ('CC1OC(n2ccc3ccc([N+](=O)[O-])cc32)C(O)C(O)C1O (stereo not given)', 'N'),
  ('S=C1ON=C(c2ccccc2)/C1=C/Nc1ccccc1', 'N');

====

Test system: HOP-92
Experiment: NCI tumour cell line growth inhibition, 48 h
Calls of active or inactive are those of the source. Cut-off read from the data, not from the text of the source: active = GI50 up to about 1.1 µM and inactive = higher.
molecules and their reported GI50
readoutKind: GI50

INSERT INTO assay_data (molecule, tgt, readoutkind, reportedvalue) VALUES
  ('Cn1c(-c2ccc(C=O)o2)ccc1-c1ccc(C=O)o1', 'HOP-92', 'GI50', '36.6 µM (inactive)'),
  ('CCC/C=C/C=C/C1CC(O)C(O)C(=O)C1CO (configuration not stated)', 'HOP-92', 'GI50', '> 100 µM (inactive)'),
  ('CC(=O)Nc1nc(C)c(S(=O)(=O)NC(=O)N2c3ccccc3CCc3ccccc32)s1', 'HOP-92', 'GI50', '> 100 µM (inactive)'),
  ('Cc1ccccc1NC(=O)C(=O)Cc1nc2ccccc2s1', 'HOP-92', 'GI50', '> 100 µM (inactive)'),
  ('Cn1nnc2c(C(N)=O)ncn2c1=O [TEMOZOLOMIDE]', 'HOP-92', 'GI50', '> 100 µM (inactive)'),
  ('CC(=O)OC1COC(n2c(=S)n(-c3ccc(C)cc3)c(=O)c3ccccc32)C(OC(C)=O)C1OC(C)=O (configuration not stated)', 'HOP-92', 'GI50', '45.8 µM (inactive)'),
  ('NC(CCC(=O)O)(CCC(=O)O)CCC(=O)O', 'HOP-92', 'GI50', '> 100 µM (inactive)'),
  ('O=C1CCCCC1CN1CCCCC1 (configuration not stated)', 'HOP-92', 'GI50', '> 100 µM (inactive)'),
  ('O=c1n(CC2CO2)c2ccccc2n1CC1CS1 (configuration not stated)', 'HOP-92', 'GI50', '> 100 µM (inactive)'),
  ('Cn1c(-c2ccccc2)cc2c3ccsc3c3ccsc3c21', 'HOP-92', 'GI50', '> 100 µM (inactive)'),
  ('CC1=NN2C(c3ccc(C)cc3)=CSC2=NC(C)(C)C1', 'HOP-92', 'GI50', '> 100 µM (inactive)'),
  ('CC1(C)CC2=NO[Se]3=C2C(=NO3)C1', 'HOP-92', 'GI50', '2.63 µM (inactive)');

Source listed as ChEMBL document CHEMBL1201862.
